system: SN12C renal; experiment: NCI-60 one-dose screen, 48 h; conditions: 10 µM
This is part of a sample that, as a whole, favours compounds with a hit. Of some 83,000 tested, about 20% had one in any assay. Activity calls are given as the source filed them. The calls were made as follows: active = growth percent below 10; inactive = the rest.
Respond with a class label; see 1.0 (active), 0.0 (inactive)

| molecule | qualitativeLabel |
| --- | --- |
| Cc1cc(NC(=O)c2ccc(C)c(Nc3nccc(-c4cccnc4)n3)c2)cc(-n2cnc(C)c2)c1 | 0.0 |
| COc1cc(C2C(C#N)=C(N)Oc3cc(O)ccc32)cc(OC)c1OC (stereo not given) | 0.0 |
| CC1(C)N=C(N)N=C(N)N1c1cccc(C#N)c1 | 0.0 |
| O=C(CCCCCCC(=O)Nc1ccccc1)NO | 0.0 |
| Cc1c[nH]c(=O)n(Cc2nnc(CCC(=O)c3nc4ccccc4[nH]3)o2)c1=O | 0.0 |

input: # lookup: test call for `Cc1cc(=O)n2nnc3cc(Cl)c(Cl)cc3n12`
output: 0.0

input: How was `CNC(=O)c1c(I)c(NC(C)=O)c(I)c(C(=O)O)c1I` classified in this test?
output: 0.0

input: Give the logged outcome of this assay for the following molecule: COc1cccc(C2C(C#N)=C(N)Oc3cc(N)ccc32)c1 (stereo not given)
output: 0.0

input: # fetch the recorded call for `COc1cc(-c2ccc(N=Nc3ccc4c(S(=O)(=O)O)ccc(N)c4c3O)c(OC)c2)ccc1N=Nc1ccc2c(S(=O)(=O)O)ccc(N)c2c1O` here
output: 0.0

input: For this molecule, state the assay outcome: `Cc1c2c[n+](C(C)C)ccc2c(C)c2c1[nH]c1ccccc12`
output: 1.0
